Catalogue of IC50 readings, one per entry.
Tested on: HuH-7 hepatocellular carcinoma cells
Assay: CellTiter Glo (CTG) Assay
Details: Homo sapiens, Huh-7, 72 h, read-out: HUH7 proliferation (nM) CTG
Property Name: IC50

INSERT INTO measurements (compound, property_name, result) VALUES
  ('COCCOc1cc(NC(=O)N2CCCCc3ccc(C=O)nc32)ncc1C#N', 'IC50', '> 3000 nM'),
  ('N#Cc1cnc(NC(=O)N2CCCc3ccc(C=O)nc32)cc1OCC1CCCCO1 (racemic)', 'IC50', '> 3000 nM'),
  ('COCCOc1cc(NC(=O)N2CCCc3cc(C4CC4)c(C=O)nc32)ncc1C#N', 'IC50', '599 nM'),
  ('COCCNc1cc(NC(=O)N2CCCc3cc(CN(C)C(=O)COC)c(C=O)nc32)ncc1C#N', 'IC50', '45.5 nM'),
  ('CN1CCN(Cc2cc3c(nc2C=O)N(C(=O)Nc2cc(NC45CC(C4)C5)c(C#N)cn2)CCC3)C(=O)C1', 'IC50', '18 nM'),
  ('COCCNc1cc(NC(=O)N2CCCc3cc(CN4CCN(C)CC4=O)c(C=O)nc32)ncc1C#N', 'IC50', '60.9 nM'),
  ('COCCNc1cc(NC(=O)N2CCCc3cc(CN4CCCC45COC5)c(C=O)nc32)ncc1C#N', 'IC50', '2780 nM'),
  ('COCCNc1cc(NC(=O)N2CCCc3cc(C4CCOCC4)c(C=O)nc32)ncc1C#N', 'IC50', '222 nM'),
  ('CC(C)Oc1cc(NC(=O)N2CCCc3cc(C4CCNCC4)c(C=O)nc32)ncc1C#N', 'IC50', '404 nM'),
  ('COCCNc1cc(NC(=O)N2CCCc3cc(N4CCOC4=O)c(C=O)nc32)ncc1C#N', 'IC50', '894 nM'),
  ('CC(C)Oc1cc(NC(=O)N2c3nc(C=O)c(CN4CCN(C)CC4=O)cc3CC[C@@H]2C)ncc1C#N', 'IC50', '104 nM'),
  ('COCCNc1cc(NC(=O)N2CCCc3cc(-c4cnn(C)c4)c(C=O)nc32)ncc1C#N', 'IC50', '1340 nM');

----------
Molecular target: FGFR4 (GST-FGFR4(388-802)) (Homo sapiens (Human))
Sequence (P22455 388-802): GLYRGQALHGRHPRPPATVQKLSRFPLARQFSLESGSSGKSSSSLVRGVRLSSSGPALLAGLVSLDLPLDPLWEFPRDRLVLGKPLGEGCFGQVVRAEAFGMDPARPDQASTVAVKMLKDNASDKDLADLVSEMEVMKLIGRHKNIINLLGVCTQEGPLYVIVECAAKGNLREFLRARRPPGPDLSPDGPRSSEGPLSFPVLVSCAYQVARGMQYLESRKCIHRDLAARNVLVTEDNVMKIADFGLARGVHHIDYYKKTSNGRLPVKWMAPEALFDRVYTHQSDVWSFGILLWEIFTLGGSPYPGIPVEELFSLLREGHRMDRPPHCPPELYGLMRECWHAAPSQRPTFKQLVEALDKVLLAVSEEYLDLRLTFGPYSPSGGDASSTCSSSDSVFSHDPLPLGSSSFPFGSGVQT
Assay: In-vitro biochemical kinase assay for FGFR4 (Caliper microfluidic mobility shift)
Conditions: biochemical FGFR4 assay; read-out: Biochemical IC50
Binary label based on IC50 with cut-off 1 nM: below gives 1 (yes), not below gives 0 (no).

INSERT INTO results (smiles_notation, system_under_test, classification) VALUES
  ('COc1cc(NC(=O)N2CCCc3cc(CN4CCN(C)CC4=O)c(C=O)nc32)ncc1C(F)(F)F', 'FGFR4 (GST-FGFR4(388-802)) (Homo sapiens (Human))', '0 (no)'),
  ('CC(=O)N(C)Cc1cc2c(nc1C=O)N(C(=O)Nc1cc(OCC(C)C)c(C#N)cn1)CCC2', 'FGFR4 (GST-FGFR4(388-802)) (Homo sapiens (Human))', '0 (no)'),
  ('COC[C@H](C)Oc1cc(NC(=O)N2CCCc3cc(CN4CCCC4=O)c(C=O)nc32)ncc1C#N', 'FGFR4 (GST-FGFR4(388-802)) (Homo sapiens (Human))', '0 (no)'),
  ('COC[C@H](C)Oc1cc(NC(=O)N2CCCc3cc(CN(C)C(C)=O)c(C=O)nc32)ncc1C#N', 'FGFR4 (GST-FGFR4(388-802)) (Homo sapiens (Human))', '0 (no)'),
  ('CC(C)Nc1cc(NC(=O)N2CCCc3cc(C(F)F)c(C=O)nc32)ncc1C#N', 'FGFR4 (GST-FGFR4(388-802)) (Homo sapiens (Human))', '0 (no)'),
  ('CC(C)Oc1cc(NC(=O)N2CCCc3cc(CN4C[C@H](N(C)C)CC4=O)c(C=O)nc32)ncc1C#N', 'FGFR4 (GST-FGFR4(388-802)) (Homo sapiens (Human))', '1 (yes)'),
  ('COCCNc1cc(NC(=O)N2CCCc3cc(CN(C)C(=O)CN(C)C)c(C=O)nc32)ncc1C#N', 'FGFR4 (GST-FGFR4(388-802)) (Homo sapiens (Human))', '1 (yes)'),
  ('CC(C)Oc1cc(NC(=O)N2CCCc3cc(CN4CCNCC4=O)c(C=O)nc32)ncc1C#N', 'FGFR4 (GST-FGFR4(388-802)) (Homo sapiens (Human))', '0 (no)');
